B1: Pre-mRNA-processing factor 40 homolog B, residues 274 to 332; numbered along this chain, Q6NWY9 (parent)
chain: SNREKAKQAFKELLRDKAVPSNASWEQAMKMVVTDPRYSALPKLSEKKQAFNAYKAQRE

- Variants of: B1
- assay: abundance fitness (aPCA) (normalised: wild type 0, dead -1); higher = more abundant; growth selection in yeast, the domain comes from the species named
- experimental setup: Homo sapiens
measure: abundance fitness
Give bare numbers.

{"variant spec": "M29A", "abundance fitness": -0.125}
{"variant spec": "W25N", "abundance fitness": 0.038}
{"variant spec": "V32A", "abundance fitness": -0.489}

Kindly give each listed record's abundance fitness.
1. R15C
2. F10D
3. L41Y

Completion:
1. -0.171
2. -0.22
3. -0.34

Batch: abundance fitness for all items listed.
1. P42M
2. R58Q
3. E4N

Completion:
-0.189
0.16
-0.074

# per-item lookup of abundance fitness; items listed below
1. Q8A
2. E59A
3. E46F
4. N52P

Completion:
1. -0.145
2. 0.184
3. -1.03
4. -0.367

I need abundance fitness for every entry listed below, if you could help.
1. A40L
2. A18Y
3. Q57Y

Completion:
0.008
-0.656
-0.715

From: the Human Domainome abundance scans (Beltran et al. 2025)
